# assay.summary: basal HepG2 mitochondrial membrane potential changes, profiling panel, cell-based, JC-1 fluorescence, 24 h, 100 nL compound (AID 1167); also: test concentration not given here
# condition.notes: higher = more signal
Could you label it YES if measured z-score is -1 or higher, and NO otherwise?

## Input Hello, I need to know if "COCCOC(=O)N1C(=O)[C@@]2(c3ccccc31)[C@H](C(=O)N1CCN(c3ncccn3)CC1)[C@H]1C(=O)O[C@H](c3ccccc3)[C@H](c3ccccc3)N1[C@@H]2c1ccc(O)cc1" has measured z-score not below -1. Thanks!
## Output YES

## Input Has CC(C)C(CO)N1C(=O)[C@@H]2C3C(=O)OCCC/C=C\[C@H]3OC23C=CCN(C(C)(C)C)C(=O)[C@@H]13 (stereo partly specified) a recorded z-score greater than or equal to -1?
## Output YES

## Input hey, is z-score for this one >= -1? "O=C1O[C@@H](c2ccccc2)[C@@H](c2ccccc2)N2[C@@H](c3ccc(OCCO)cc3)[C@]3(C(=O)Nc4ccccc43)[C@@H](C(=O)O)[C@H]12"
## Output NO

## Input Does "O=C1O[C@H](c2ccccc2)[C@H](c2ccccc2)N2[C@H]1[C@@H](C(=O)O)[C@]1(C(=O)Nc3ccc(C#CC4=CCCCC4)cc31)[C@H]2c1ccc(O)cc1" have a reported z-score of at least -1?
## Output NO

## Input Does the molecule "C=CCN1C(=O)[C@@]2(CCS(=O)(=O)c3ccccc3)N=C(c3ccc(OCCCO)cc3)O[C@H]2c2ccccc21" have recorded z-score that is -1 or more?
## Output YES

* * *

The following molecules are shown together with reported composite z-score values.
# assay.summary: small-molecule binders of probe aNOTCH3, primary screen, biochemical, small-molecule microarray, 635/667 nm fluorescence (AID 1120);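 also: probe is a biotin-tagged antibody raised against NOTCH3 rather than NOTCH3 protein; score merges spot fluorescence near 667 nm with spot signal to noise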
# condition.notes: higher = more signal
Just the number, please.

## Input Can you share its composite z-score? I mean this molecule: "CC1=C[C@@]2(CO)C(=O)[C@]3(CO3)[C@@H]1[C@H]1[C@]2(C)C=C(CO)C(=O)[C@]12CO2"
## Output 0.112

## Input Reported composite z-score for CN(C)C(=O)C1N=C(c2ccc(OCCCO)cc2)N(c2ccccc2)O1 (centres undefined) : what is it?
## Output 0.147

## Input Please look up its composite z-score: CN(C)c1ccc(C(O)C2C=CC3C(=O)N(c4ccccc4)C(=O)C3N2Nc2ccc([N+](=O)[O-])cc2)cc1 (centres undefined)
## Output 0.307

Attention now turns to another entry.
## Input Which composite z-score value is on record for "COCCOC(=O)N1C(=O)[C@@]2(c3cc(C#Cc4ccc(OC)cc4)ccc31)[C@H](C(=O)Nc1nc3ccccc3s1)[C@H]1C(=O)O[C@H](c3ccccc3)[C@H](c3ccccc3)N1[C@@H]2c1ccc(OCCO)cc1" ?
## Output 0.0493

* * *

# assay.summary: compound binding in COS7 lysate, probe aLAP1, primary screen, cell lysate, small-molecule microarray (AID 1124);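 also: lysate comes from COS7 cells expressing LAP1 and is applied at 0.3 µg/mL; score merges spot fluorescence near 667 nm with signal-to-noise over triplicate slides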
# condition.notes: probe aLAP1, fluorescence, higher = more signal
Outcome: 1 for composite z-score of at least 0.6; 0 for anything lower.

## Input Does the compound "C=CCOC(=O)[C@H]1[C@@H]2C(=O)O[C@@H](c3ccccc3)[C@@H](c3ccccc3)N2[C@@H](c2ccc(OCCOC(=O)[C@@H]3C[C@@H]4C(=O)N[C@@H](CCCCNC(C)=O)C(=O)N4[C@@H]3c3ccc(O)cc3)cc2)[C@]12C(=O)Nc1ccc(I)cc12" have recorded composite z-score that is 0.6 or more?
## Output 1

With those in mind, consider the next compound.
## Input Kindly determine if composite z-score recorded for "CCCNC(=O)[C@@H]1c2ccccc2C(=O)N(C(C)C)[C@H]1c1ccc(CO)cc1" is above or exactly 0.6.
## Output 1
